As shown below, each of these compounds has a reported TGI value.
- System: HT29 colon
- Assay summary: NCI tumour cell line growth inhibition, 48 h

[
  {
    "Compound": "Cc1cnc2cc(Cl)ccc2c1NCCN(CC(C)C)CC(C)C",
    "TGI": "> 100 µM"
  },
  {
    "Compound": "CO[C@@H]1C[C@H]2[C@@H]3CC[C@H]([C@@H](C)COC(C)=O)[C@@]3(C)CC[C@@H]2[C@@]2(C)CC[C@H]3C[C@]312",
    "TGI": "19.9 µM"
  },
  {
    "Compound": "COc1cc(CN(C)N2C(=O)c3cccc4cc([N+](=O)[O-])cc(c34)C2=O)cc(OC)c1OC",
    "TGI": "> 100 µM"
  },
  {
    "Compound": "O=C(O)COc1ccc2c3c1C(=O)CCC3CO2 (centres undefined)",
    "TGI": "> 100 µM"
  },
  {
    "Compound": "CC12OC(C(=O)C13CC3)C1C(=O)c3cccc(O)c3C(=O)C12 (centres undefined)",
    "TGI": "> 100 µM"
  },
  {
    "Compound": "CCOc1ccc(N=C2NC(=O)C(CC(=O)Nc3ccc(Cl)cc3Cl)S2)cc1 (centres undefined)",
    "TGI": "> 100 µM"
  },
  {
    "Compound": "CNC(=S)N/N=C(\\C)c1cc(OC)c(OC)cc1O",
    "TGI": "> 100 µM"
  },
  {
    "Compound": "c1ccc2c(CNCCCN3CCN(CCCNCc4cccc5ccccc45)CC3)cccc2c1",
    "TGI": "3.2 µM"
  },
  {
    "Compound": "N#Cc1nc(/C=C/c2cccs2)oc1N",
    "TGI": "> 100 µM"
  },
  {
    "Compound": "Oc1c(Nc2ccccc2)cc2c3c1N=NC=3CCN=2",
    "TGI": "> 100 µM"
  },
  {
    "Compound": "COc1ccc(-c2cc(=O)c3cc4c(cc3[nH]2)OCO4)c(OC)c1",
    "TGI": "> 100 µM"
  },
  {
    "Compound": "Oc1c(CCl)cc(Cl)cc1Cc1cc(Cl)cc(Cc2cc(Cl)cc(CCl)c2O)c1O",
    "TGI": "17.6 µM"
  },
  {
    "Compound": "COC(=O)Nc1nc2ccc(C(=O)C3CC3)cc2[nH]1",
    "TGI": "6.31 µM"
  },
  {
    "Compound": "O=C(c1ccccc1)c1ccc(N2C(=O)/C(=C/c3cccc([N+](=O)[O-])c3)N=C2c2ccccc2)c(N2C(=O)/C(=C/c3cccc([N+](=O)[O-])c3)N=C2c2ccccc2)c1",
    "TGI": "> 100 µM"
  },
  {
    "Compound": "C=CC(Br)(CBr)CCC1OC1(C)C (centres undefined)",
    "TGI": "32.8 µM"
  },
  {
    "Compound": "Cc1ccc(C)c(N2C(=O)C(=O)C(c3nc4ccccc4s3)C(=O)C2=O)c1",
    "TGI": "> 100 µM"
  },
  {
    "Compound": "CC(=O)N[C@@H](Cc1ccc(OP(=O)(O)O)cc1)C(=O)N[C@H]1CCC(=O)N2CCC[C@@H](C(=O)NCc3cccc4ccccc34)N2C1=O",
    "TGI": "> 25 µM"
  },
  {
    "Compound": "CNC(=O)Nn1c(SC)nc2ccccc21",
    "TGI": "> 100 µM"
  },
  {
    "Compound": "COc1ccccc1NC(=S)NNC(=O)c1cc(-c2ccccc2)nc2ccccc12",
    "TGI": "71.3 µM"
  }
]
